- measurement_target: MAP kinase-activated protein kinase 2 (Homo sapiens) (UniProt P49137)
- Sequence (P49137 whole entry, looked up): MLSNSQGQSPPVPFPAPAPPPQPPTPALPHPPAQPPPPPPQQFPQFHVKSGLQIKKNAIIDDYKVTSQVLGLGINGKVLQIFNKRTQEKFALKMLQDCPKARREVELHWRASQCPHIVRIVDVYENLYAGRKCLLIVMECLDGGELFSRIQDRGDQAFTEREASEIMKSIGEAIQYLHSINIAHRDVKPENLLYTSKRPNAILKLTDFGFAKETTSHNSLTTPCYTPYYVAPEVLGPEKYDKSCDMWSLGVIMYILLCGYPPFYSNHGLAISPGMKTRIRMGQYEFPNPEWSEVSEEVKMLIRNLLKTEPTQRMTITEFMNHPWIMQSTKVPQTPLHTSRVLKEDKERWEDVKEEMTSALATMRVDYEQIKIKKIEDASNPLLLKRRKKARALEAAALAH
- assay_protocol: Inhibition of MK2 expressed in Escherichia coli or baculovirus-infected insect cells at 667 uM by IMAP assay
measured_metric: inhibition (%)
The answer is to be given in %; state only the numeric part.

Cc1ccc(C(=O)NC2CC2)cc1F ... 8
Nc1[nH]cnc2ncnc1-2 ... 80

Please find the next molecule below.
What value of inhibition has been reported for the following molecule? Cc1ccc(NC(=O)Nc2cccc(C(F)(F)F)c2)cc1
13

###

- measurement_target: Rho-associated protein kinase 1 (Homo sapiens) (UniProt Q13464)
- Sequence (Q13464 2-1354 limits assumed): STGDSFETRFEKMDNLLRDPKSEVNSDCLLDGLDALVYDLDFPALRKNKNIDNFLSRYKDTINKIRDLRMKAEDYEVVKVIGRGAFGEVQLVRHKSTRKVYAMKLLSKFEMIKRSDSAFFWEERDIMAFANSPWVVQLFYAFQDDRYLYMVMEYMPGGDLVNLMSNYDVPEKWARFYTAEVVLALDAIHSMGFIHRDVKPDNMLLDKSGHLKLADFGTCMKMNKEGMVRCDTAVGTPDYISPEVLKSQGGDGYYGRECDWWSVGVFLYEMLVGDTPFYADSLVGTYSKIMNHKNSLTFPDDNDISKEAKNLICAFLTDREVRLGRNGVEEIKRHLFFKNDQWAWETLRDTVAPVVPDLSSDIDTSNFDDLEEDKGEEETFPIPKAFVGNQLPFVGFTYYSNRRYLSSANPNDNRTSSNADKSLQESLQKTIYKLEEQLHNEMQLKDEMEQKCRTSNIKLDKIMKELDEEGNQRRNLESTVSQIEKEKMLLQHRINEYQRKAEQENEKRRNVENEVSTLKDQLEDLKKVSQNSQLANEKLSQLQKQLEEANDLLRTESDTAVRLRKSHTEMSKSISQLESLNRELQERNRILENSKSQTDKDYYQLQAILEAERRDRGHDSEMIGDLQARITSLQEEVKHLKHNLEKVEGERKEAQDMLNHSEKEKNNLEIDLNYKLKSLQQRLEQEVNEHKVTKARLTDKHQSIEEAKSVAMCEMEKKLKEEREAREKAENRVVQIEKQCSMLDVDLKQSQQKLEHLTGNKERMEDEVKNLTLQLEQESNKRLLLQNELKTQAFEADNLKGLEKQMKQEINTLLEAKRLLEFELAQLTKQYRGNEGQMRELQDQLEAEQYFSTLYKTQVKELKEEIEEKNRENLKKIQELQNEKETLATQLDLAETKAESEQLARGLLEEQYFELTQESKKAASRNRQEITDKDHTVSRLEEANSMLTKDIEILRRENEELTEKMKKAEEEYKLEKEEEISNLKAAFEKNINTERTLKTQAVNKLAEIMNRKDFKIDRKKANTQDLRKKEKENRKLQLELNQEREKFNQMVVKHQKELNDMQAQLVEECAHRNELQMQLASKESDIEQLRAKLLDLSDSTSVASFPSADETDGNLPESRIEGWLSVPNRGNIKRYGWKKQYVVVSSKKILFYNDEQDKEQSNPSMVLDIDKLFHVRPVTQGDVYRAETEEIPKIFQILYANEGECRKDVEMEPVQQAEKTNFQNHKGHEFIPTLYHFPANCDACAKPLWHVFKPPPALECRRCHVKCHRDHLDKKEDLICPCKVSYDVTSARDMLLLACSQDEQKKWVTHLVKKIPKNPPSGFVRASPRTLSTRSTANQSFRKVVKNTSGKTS
- assay_protocol: Inhibition of ROCK1 expressed in Escherichia coli or baculovirus-infected insect cells at 400 uM by IMAP assay
Decision: inhibition >= 20% yields Fulfilled, all other cases yield Not fulfilled.

Example results:
c1ccc2[nH]ncc2c1 ... Fulfilled
Nc1n[nH]c2ncccc12 ... Fulfilled
c1n[nH]c2c1CCCC2 ... Fulfilled
c1ccc(-c2cnc3nccnn23)cc1 ... Not fulfilled

Query compound follows.
Check this compound for inhibition at or above 20%: c1ccc(Nc2ncccn2)cc1
Not fulfilled
